test: reversal of MRP1-mediated doxorubicin resistance, pilot screen, H69AR cells, doxorubicin co-treatment (AID 601); details: H69AR cells + 2 uM doxorubicin, CellTiter-Glo, 72 h; at 10 µM; stronger effect = higher value
OBSERVABLE: differential viability (reversal) (%)
Could you give me the number in %? Just the number is fine.

Any idea what differential viability (reversal) was measured for CN(CC(=O)O)S(=O)(=O)c1cc(Cl)ccc1Cl ? 12.2

Any idea what differential viability (reversal) was measured for O=C(CN1C(=O)CCS(=O)(=O)c2ccccc21)NCc1ccc(F)cc1 ? 3.11

Any idea what differential viability (reversal) was measured for O=C(CSCc1n[nH]c(=O)[nH]1)NCCOc1cccc(Oc2ccccc2)c1 ? 3.55

Any idea what differential viability (reversal) was measured for O=C(c1ccccc1-c1nc(-c2ccccc2)no1)N1CCCC1 ? 9.27

Any idea what differential viability (reversal) was measured for O=C(Nc1ccc(F)cc1)N(CCCN1CCOCC1)Cc1cc2cc3c(cc2[nH]c1=O)OCO3 ? 7.71

Any idea what differential viability (reversal) was measured for Cc1cc(C(=O)Cn2cncn2)c(C)n1CCc1ccc(F)cc1 ? -5.71

Any idea what differential viability (reversal) was measured for COc1ccc(Cl)cc1NC(=O)COc1cccc(-n2cnnn2)c1 ? 4.85

Any idea what differential viability (reversal) was measured for Cc1occc1C(=O)Nc1cccnc1 ? 3.58

Any idea what differential viability (reversal) was measured for CC(C)(C)c1cc(NC(=O)c2cc(F)c(F)c(F)c2F)no1 ? -20.6

Any idea what differential viability (reversal) was measured for O=C(CSc1ccccc1C(=O)NCCCN1CCCC1=O)NCc1ccco1 ? 2.32

Any idea what differential viability (reversal) was measured for COCCn1c(Sc2nc(C)cs2)nc2c1c(=O)[nH]c(=O)n2C ? 4.51

###

assay: SK-BR-3 cell growth inhibitors, pilot screen, 24 h, human (AID 572); settings: SK-BR-3 viability, CellTiter-Glo luminescence, at 10 µM, stronger effect = lower value;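 note: compound exposure lasted between 18 and 24 h rather than exactly 24 h; 100% = carrier-treated control wells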
Friendly reminder: viability below 90% is y, at or above is n.

Strictly below 90%: is that where viability of C1CCN=C(Nc2nc3c(s2)CCCC3)CC1 sits? n

Strictly below 90%: is that where viability of CC(=O)Nc1ccc(NC(=O)Cn2cnc3c(cnn3C(C)(C)C)c2=O)cc1 sits? n

Strictly below 90%: is that where viability of CCOC(=O)C(C(C)=O)c1nc(C)nc2c1nnn2Cc1ccccc1Cl (stereo not drawn) sits? y

Strictly below 90%: is that where viability of CC(=O)n1nc(-c2ccco2)nc1SCc1ccccc1 sits? y

Strictly below 90%: is that where viability of Cn1c(=O)c2c(nc(NCCNC(=O)c3ccco3)n2Cc2ccccc2Cl)n(C)c1=O sits? y

Strictly below 90%: is that where viability of Cc1ccc(-c2nnc(SCC(=O)N3CC(C)CC(C)C3)o2)cc1C (stereo not drawn) sits? n

Strictly below 90%: is that where viability of Cc1c2cnn(CC(=O)N3CCN(c4ncccn4)CC3)c(=O)c2c(C)n1Cc1ccc(F)cc1 sits? n

Strictly below 90%: is that where viability of CC(=O)Nc1c(O)[nH]c2ccccc12 sits? n

Strictly below 90%: is that where viability of COC(=O)Nc1ccc(S(=O)(=O)N2CCCCCC2)cc1 sits? n

Strictly below 90%: is that where viability of CC(=O)O[C@]1(C(C)=O)CC[C@H]2[C@@H]3C=C(Cl)C4=CC(=O)CC[C@]4(C)[C@H]3CC[C@@]21C sits? n

Strictly below 90%: is that where viability of COCCN(Cc1cc2cc3c(cc2n2nnnc12)OCO3)C(=O)c1ccccc1F sits? n

Strictly below 90%: is that where viability of CCN(C(C)=O)c1nnc(CSc2nc3ccccc3s2)s1 sits? n

Strictly below 90%: is that where viability of Cc1c(NC(=O)C(C)OC(=O)c2cc3c4ccccc4n(C)c3s2)c(=O)n(-c2ccccc2)n1C (stereo not drawn) sits? n

Strictly below 90%: is that where viability of CC(=N\O)/C(CN(C)C)=N/O sits? n

Strictly below 90%: is that where viability of Cc1ccccc1OCCCN1C(=O)C(=O)c2cccc(C)c21 sits? n

Values from PubChem BioAssay
